pKi: −log10 of the molar value.
Let's go through some pKi measurements on 5-hydroxytryptamine receptor 1B (Homo sapiens) together.
Sequence (P28222 whole entry): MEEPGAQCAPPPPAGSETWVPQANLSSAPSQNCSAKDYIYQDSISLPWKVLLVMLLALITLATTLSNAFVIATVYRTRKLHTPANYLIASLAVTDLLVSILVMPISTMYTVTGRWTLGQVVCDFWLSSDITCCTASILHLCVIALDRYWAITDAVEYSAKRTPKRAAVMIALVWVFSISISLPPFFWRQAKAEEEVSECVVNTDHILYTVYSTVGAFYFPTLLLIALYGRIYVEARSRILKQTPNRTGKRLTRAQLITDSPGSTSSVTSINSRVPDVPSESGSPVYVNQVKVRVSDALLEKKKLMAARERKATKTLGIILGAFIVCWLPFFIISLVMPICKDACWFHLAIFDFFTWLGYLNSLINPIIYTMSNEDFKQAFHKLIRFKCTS
quantity.measured: pKi

INSERT INTO results (compound_structure_string, test_target, quantity_measured, relation_sign, value_measured) VALUES
  ('Cc1cc(Br)cc(C)c1N=C1NCCN1', '5-hydroxytryptamine receptor 1B (Homo sapiens)', 'pKi', '=', 5.84),
  ('Cc1cccc(C)c1N=C1NCCN1', '5-hydroxytryptamine receptor 1B (Homo sapiens)', 'pKi', '<', 4.52),
  ('c1ccc(NC2=NCCN2)cc1', '5-hydroxytryptamine receptor 1B (Homo sapiens)', 'pKi', '<', 4.52),
  ('Clc1cc(I)cc(Cl)c1N=C1NCCN1', '5-hydroxytryptamine receptor 1B (Homo sapiens)', 'pKi', '=', 5.70),
  ('Cc1cc(C(C)(C)C)cc(C)c1N=C1NCCN1', '5-hydroxytryptamine receptor 1B (Homo sapiens)', 'pKi', '=', 7.92),
  ('Cc1cc(C(C)(C)C)cc(C)c1CC1=NCCCN1', '5-hydroxytryptamine receptor 1B (Homo sapiens)', 'pKi', '=', 5.35),
  ('Cc1cc([N+](=O)[O-])cc(C)c1N=C1NCCN1', '5-hydroxytryptamine receptor 1B (Homo sapiens)', 'pKi', '=', 4.99),
  ('Cc1cc(C(C)(C)C)cc(C)c1CC1=NCCN1', '5-hydroxytryptamine receptor 1B (Homo sapiens)', 'pKi', '=', 7.89);
